Quick note: these are AC50 numbers for system: Corticotropin-releasing factor receptor 2 (Homo sapiens); also: assay procedure not described here
Sequence (Q13324 whole entry): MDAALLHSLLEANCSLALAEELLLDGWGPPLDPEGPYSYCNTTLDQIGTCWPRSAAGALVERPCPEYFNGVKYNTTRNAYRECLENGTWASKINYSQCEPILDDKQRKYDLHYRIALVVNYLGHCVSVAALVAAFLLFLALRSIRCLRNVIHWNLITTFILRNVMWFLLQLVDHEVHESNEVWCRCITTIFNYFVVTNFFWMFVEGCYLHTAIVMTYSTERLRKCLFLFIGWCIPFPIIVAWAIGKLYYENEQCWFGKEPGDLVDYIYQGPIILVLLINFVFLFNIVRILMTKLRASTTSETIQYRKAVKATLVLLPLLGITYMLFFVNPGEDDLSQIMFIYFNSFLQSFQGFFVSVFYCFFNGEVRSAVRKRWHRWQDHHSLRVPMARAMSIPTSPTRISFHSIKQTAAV

compound	AC50
COc1cc2nc(N3CCN(C(=O)C4CCCO4)CC3)nc(N)c2cc1OC (stereo not given)	> 30 µM
CC(N)C(O)c1ccccc1 (stereo not given)	> 30 µM
CN1CCN(C2=Nc3ccccc3Oc3ccc(Cl)cc32)CC1	> 30 µM
CC(C)Cc1ccc(C(C)C(=O)O)cc1 (stereo not given)	> 30 µM
Cc1cnc(C(=O)NCCc2ccc(S(=O)(=O)NC(=O)NC3CCCCC3)cc2)cn1 [GLIPIZIDE]	> 30 µM

====

Biological target: Muscarinic acetylcholine receptor M5 (Homo sapiens); also: assay procedure not described here
Sequence (P08912 whole entry): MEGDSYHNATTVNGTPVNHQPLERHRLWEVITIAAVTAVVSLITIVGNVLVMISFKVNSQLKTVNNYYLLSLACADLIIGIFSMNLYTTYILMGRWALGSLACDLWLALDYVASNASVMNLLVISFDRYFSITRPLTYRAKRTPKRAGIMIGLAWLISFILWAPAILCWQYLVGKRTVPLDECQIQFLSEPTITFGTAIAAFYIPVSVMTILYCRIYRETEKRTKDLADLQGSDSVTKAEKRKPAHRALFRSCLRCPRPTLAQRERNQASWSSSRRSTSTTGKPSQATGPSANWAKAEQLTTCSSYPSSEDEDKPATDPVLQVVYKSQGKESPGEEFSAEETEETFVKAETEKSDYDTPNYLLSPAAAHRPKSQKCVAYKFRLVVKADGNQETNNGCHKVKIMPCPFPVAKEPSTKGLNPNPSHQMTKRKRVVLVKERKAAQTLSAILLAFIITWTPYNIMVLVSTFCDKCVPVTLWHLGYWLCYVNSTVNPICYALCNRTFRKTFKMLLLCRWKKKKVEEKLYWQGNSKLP

compound	AC50
CCCC(CCC)C(=O)O [VALPROIC ACID]	> 10 µM
Cc1onc(-c2ccccc2)c1-c1ccc(S(N)(=O)=O)cc1 [VALDECOXIB]	> 10 µM
CC(C)Cc1ccc(C(C)C(=O)O)cc1 (configuration not stated) [IBUPROFEN]	> 10 µM
CCCN(CCC)C(=O)Cc1c(-c2ccc(Cl)cc2)nc2ccc(Cl)cn12 [ALPIDEM]	> 10 µM
N[C@@H](CC(=O)N1CCn2c(nnc2C(F)(F)F)C1)Cc1cc(F)c(F)cc1F [SITAGLIPTIN]	> 10 µM
CN1CCN(C2=Nc3ccccc3Oc3ccc(Cl)cc32)CC1 [LOXAPINE]	0.671 µM
C=CC[C@@H]1/C=C(\C)C[C@H](C)C[C@H](OC)[C@H]2O[C@@](O)(C(=O)C(=O)N3CCCC[C@H]3C(=O)O[C@H](/C(C)=C/[C@@H]3CC[C@@H](O)[C@H](OC)C3)[C@H](C)[C@@H](O)CC1=O)[C@H](C)C[C@@H]2OC [TACROLIMUS ANHYDROUS]	> 10 µM
CN(C)CCc1c[nH]c2ccc(Cn3cncn3)cc12 [RIZATRIPTAN]	> 10 µM
OC1(c2ccc(Cl)cc2)c2ccccc2C2=NCCN21 (configuration not stated) [MAZINDOL]	> 10 µM
Cn1c(=O)cc(N2CCC[C@@H](N)C2)n(Cc2ccccc2C#N)c1=O [ALOGLIPTIN]	> 10 µM
CC(N)C(O)c1ccccc1 (configuration not stated) [PHENYLPROPANOLAMINE]	> 10 µM
COc1ccccc1OCCNCC(O)COc1cccc2[nH]c3ccccc3c12 (configuration not stated) [CARVEDILOL]	> 10 µM
